Tested on: ERRα
Experiment: ERR luciferase reporter gene assay, agonist mode
Format: cell-based, human
Conditions: Homo sapiens, read-out: AC50 ERR ↑
# note: boundary value 3000 nM maps to Criterion not met; AC50 below it maps to Criterion met

Sample answers from the record:
Oc1cc(O)cc(/C=C/c2ccc(O)c(O)c2)c1	Criterion not met
Oc1ccc(/C=C/c2cc(O)cc(O)c2)cc1	Criterion not met
CCCCCCCCCCCCCC(=O)O[C@@H]1[C@@H](C)[C@@]2(O)[C@@H](C=C(CO)C[C@]3(O)C(=O)C(C)=C[C@@H]23)[C@@H]2C(C)(C)[C@]12OC(C)=O [Phorbol 12-myristate 13-acetate]	Criterion met
O=c1c(-c2ccc(O)cc2)coc2cc(O)ccc12	Criterion not met

Below: the item to evaluate.
Task item: Record "O=c1c2ccccc2nc2n1CCc1c-2[nH]c2ccccc12" : is its AC50 strictly below 3000 nM?
Reply: Criterion met

* * *

Below: a set of entries, each annotated with reported log10 EC50.
Target: ERRα
Test: ERR luciferase reporter gene assay, agonist mode
Type: cell-based, human
Details: read-out: ERRα (Agonist) EC50; LOPAC qHTS; dash = inconclusive or no activity
Where a name gives a salt, the structure may show the parent alone.
# log10 transformed; quantity=EC50; unit=µM

O=C1Nc2ccccc2/C1=C1/Nc2ccccc2/C1=N\O	0.42
CN(C)c1ccc(C=C2C(=O)Nc3ccccc32)cc1	0.53
Fc1cccc(C=NN=Cc2cccc(F)c2)c1	1.12
COc1ccc(/C=C2\COc3ccc(C)cc3C2=O)cc1O	0.03
COc1cccc(-c2cc(=O)c3ccccc3o2)c1N	0.32
Cc1ccc(S(=O)(=O)/C=C/C#N)cc1	1.23
O=C1NC(=O)/C(=C/c2ccc3c(c2)OC(F)(F)O3)S1	0.50
Cc1ccc(O)c(N=Nc2ccccc2)n1	0.92
Nc1ccc(-c2ccc3ccccc3n2)cc1 [BF-170 hydrochloride]	0.42

Here is another molecule to look at.
Task item: Requested read-out: log10 EC50. Entry: "Cc1cccc(/C=C/c2ccccc2)n1"
Reply: 1.12
